Kd values for the binders below.
Biological target: T1, human immunoglobulin E (hIgE) (human, UniProt P01854-1 1-428)
T1 construct: also called human IgE; Native IgE (Abcam)
T1 sequence (P01854 whole entry): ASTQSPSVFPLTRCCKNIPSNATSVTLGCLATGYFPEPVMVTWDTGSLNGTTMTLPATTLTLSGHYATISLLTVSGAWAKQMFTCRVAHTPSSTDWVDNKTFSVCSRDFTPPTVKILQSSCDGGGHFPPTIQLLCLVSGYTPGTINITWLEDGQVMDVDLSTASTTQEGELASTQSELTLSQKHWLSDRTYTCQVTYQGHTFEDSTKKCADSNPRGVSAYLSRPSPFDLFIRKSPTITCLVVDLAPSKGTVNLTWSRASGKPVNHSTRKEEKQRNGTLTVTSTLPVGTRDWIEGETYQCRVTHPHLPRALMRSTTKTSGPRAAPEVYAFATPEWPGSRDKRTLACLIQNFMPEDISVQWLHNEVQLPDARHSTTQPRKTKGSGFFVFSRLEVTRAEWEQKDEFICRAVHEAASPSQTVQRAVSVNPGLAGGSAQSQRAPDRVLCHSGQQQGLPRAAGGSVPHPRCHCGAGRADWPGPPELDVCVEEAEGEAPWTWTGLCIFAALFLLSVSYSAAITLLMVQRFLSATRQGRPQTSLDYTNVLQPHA
Assay: SPR (Biacore), pH 7.4

Solved cases (2 shown):
// sample Oma VH15W100b - VL3D28H (antibody, V domains shown, also called Oma VH15W100b VL3D25H) VH: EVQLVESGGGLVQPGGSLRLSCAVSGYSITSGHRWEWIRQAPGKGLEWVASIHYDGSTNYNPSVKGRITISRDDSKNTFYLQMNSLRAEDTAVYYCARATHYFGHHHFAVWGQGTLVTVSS VL: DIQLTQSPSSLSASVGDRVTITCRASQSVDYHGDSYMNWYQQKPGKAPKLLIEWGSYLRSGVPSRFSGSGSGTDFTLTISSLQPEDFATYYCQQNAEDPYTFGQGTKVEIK , its Kd was 8.59 nM

// sample OMA VH15 - VL3S31H (antibody, V domains shown) VH: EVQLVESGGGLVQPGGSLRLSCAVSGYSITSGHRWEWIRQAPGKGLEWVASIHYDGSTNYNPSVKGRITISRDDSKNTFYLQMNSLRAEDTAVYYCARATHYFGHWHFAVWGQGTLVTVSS VL: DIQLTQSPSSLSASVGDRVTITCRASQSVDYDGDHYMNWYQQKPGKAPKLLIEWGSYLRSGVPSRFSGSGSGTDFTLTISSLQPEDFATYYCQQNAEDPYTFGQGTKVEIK , its Kd was 0.534 nM

Now look at this one.
// sample Oma VH15W100b - VL3S31H (antibody, V domains shown) VH: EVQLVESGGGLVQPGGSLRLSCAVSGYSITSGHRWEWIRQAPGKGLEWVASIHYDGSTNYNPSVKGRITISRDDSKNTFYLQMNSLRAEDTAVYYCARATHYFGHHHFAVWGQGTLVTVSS VL: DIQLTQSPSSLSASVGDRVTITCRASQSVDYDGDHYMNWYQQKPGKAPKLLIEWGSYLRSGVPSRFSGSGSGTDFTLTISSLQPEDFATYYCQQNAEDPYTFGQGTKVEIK , its Kd was 6.12 nM
